Biological target: Glucose transporter (Leishmania mexicana)
Test: ST_JUDE_LEISH: Cytotoxicity at 2uM final concentration against transgenic Leishmania Mexicana promastigotes LmGT2 that are glucose transport deficient and complemented with the L. Mexicana glucose transporter 2. Activity is measured by DNA content using SYBR green in vitro
Type: functional
Reported inhibition values for the following molecules.
Numeric only. Scale: %

These recorded examples may help you get a feel for the data.
COC(=O)C(Cc1ccccc1)NC(=O)NC1CCN(c2ccnc(Nc3ccc(F)cc3)n2)C1 (centres undefined) = 3.07
CCOc1cccc(C2c3c(oc4ccccc4c3=O)C(=O)N2CCN(CC)CC)c1 (centres undefined) = 3.34
COc1cccc(Nc2nc(C)cc(NCc3ccc(-c4c(C)noc4C)cc3)n2)c1 = 3.73
COc1ccc(OCC(=O)Nc2nc(-c3ccc(OC)cc3)c(C)s2)cc1 = -1.09
CCOC(=O)C(C)(C)Oc1ccc(C(=C2CC(C)(C)CC(C)(C)C2)c2ccc(O)cc2)cc1 = 3.56
CCOc1cc2ccccc2cc1CNCCCCCCNCc1cc2ccccc2cc1OCC = 0.64

Fill blank: measured inhibition of the molecule "c1ccc(CNCc2cccc(-c3cccc(-c4nc5ccccc5[nH]4)c3)c2)cc1" is ____. 3.48

Fill blank: measured inhibition of the molecule "COc1ccc(C(=O)CCC(=O)N(Cc2ccc(-c3ccc(CNCCc4ccc(S(C)(=O)=O)cc4)cn3)cc2)C2CCN(Cc3ccccc3)CC2)cc1F" is ____. 2.72

Fill blank: measured inhibition of the molecule "CCCC1(NC[C@@H](O)[C@H](Cc2ccccc2)NC(=O)c2cc(NCC)cc(N3CCCCS3(=O)=O)c2)CCCC1" is ____. 3.48

* * *

Reported inhibition values for the following compounds.
Target: Glucose transporter (Leishmania mexicana)
Experiment: ST_JUDE_LEISH: Cytotoxicity at 2uM final concentration against transgenic Leishmania Mexicana promastigotes LmGT2 that are glucose transport deficient and complemented with the L. Mexicana glucose transporter 2. Activity is measured by DNA content using SYBR green in vitro
Format: functional
Numeric only. Scale: %

O=C(Nc1cccc(-c2nn3ccccc3c2-c2ccnc(Nc3ccccc3)n2)c1)c1cc(F)ccc1F = -2.21

What reported inhibition corresponds to "COc1ccc2nccc([C@@H](O)CN3CCC(NCc4cc5sccc5nc4C(F)(F)F)CC3)c2c1" on Glucose transporter (Leishmania mexicana)? -4.21

* * *

Target: Hexose transporter 1 (Plasmodium falciparum) (UniProt O97467)
Test: ST_JUDE_LEISH: Cytotoxicity at 2uM final concentration against transgenic Leishmania Mexicana promastigotes LmPfHT that are glucose transport deficient and complemented with the Plasmodium falciparum hexose transporter. Activity is measured by DNA content using SYBR green in vitro
Assay type: functional
Property Measured: inhibition (%)
Numeric only. Scale: %

These recorded examples may help you get a feel for the data.
O=C(Nc1cccc(-c2cccc(-c3nc4cc(F)ccc4[nH]3)c2)c1)c1csnn1 = 4.57
CC(C)(C)CC(C)(C)c1ccc(O)c(C(=O)Nc2ccc([N+](=O)[O-])cc2)c1 = 1.55
O=C(Nc1ccc2oc(-c3ccc(Br)cc3)nc2c1)c1ccc([N+](=O)[O-])o1 = 6.94
COc1cccc(CNC[C@@H](O)[C@H](Cc2ccccc2)NC(=O)c2cc(N3CCCC3=O)c3[nH]cc(C(C)C)c3c2)c1 = 2.02

Fill blank: measured inhibition of the compound "COc1ccc(-c2cccc(CNCc3ccc(F)cc3)c2)cc1S(=O)(=O)NCCN1CCCC1" is ____. 8.55
